target: Human KOR (Homo sapiens, UniProt P41145); construct: expressed in transfected cells; host or cells: HEK-293T; experiment: cell-based; conditions: read-out: EC50 at indicated opioid receptor, Human KOR
Sequence (P41145 whole entry): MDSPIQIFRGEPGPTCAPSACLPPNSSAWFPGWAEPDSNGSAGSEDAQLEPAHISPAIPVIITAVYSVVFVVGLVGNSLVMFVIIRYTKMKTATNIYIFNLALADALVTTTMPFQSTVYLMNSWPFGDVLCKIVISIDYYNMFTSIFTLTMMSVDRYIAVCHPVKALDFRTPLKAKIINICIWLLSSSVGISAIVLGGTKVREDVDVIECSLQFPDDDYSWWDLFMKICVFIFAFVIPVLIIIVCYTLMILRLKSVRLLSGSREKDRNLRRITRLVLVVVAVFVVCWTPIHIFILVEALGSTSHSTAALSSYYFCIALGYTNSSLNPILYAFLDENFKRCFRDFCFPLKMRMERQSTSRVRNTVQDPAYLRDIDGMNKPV
measuredMetric: EC50

Field request: EC50 | item: CCC1CC2CC3c4oc5ccc(OC)cc5c4CCN(C2)C13 (single isomer, unassigned) [Compound 34c] > 10 µM

====

Give pEC50 for every item shown.
target: Human DOR (Homo sapiens); construct: expressed in transfected cells; host or cells: HEK-293T; assay: cell-based; settings: read-out: EC50 at indicated opioid receptor, Human DOR
pEC50: −log10 of the molar value.

What measured pEC50 goes with CCC1CC2CC3c4oc5ccc(OC)cc5c4CCN(C2)C13 (single isomer, unassigned) [Compound 34c] ? < 4.00

Try this molecule next: CCCC1CC2CC3c4oc5ccc(OC)cc5c4CCN(C2)C13 (centres unmarked) [Compound 34f] < 4.00

====

target: Human KOR (Homo sapiens, UniProt P41145); construct: expressed in transfected cells; host or cells: HEK-293T; experiment: cell-based; settings: read-out: EC50, Human KOR
measuredMetric: EC50

What value of measured EC50 is listed for CCC1CC2(C)CC3c4oc5ccc(O)cc5c4CCN(C2)C13 (single isomer, unassigned) [Compound 60b] ? < 10 µM

====

target: Human DOR (Homo sapiens, UniProt P41143); construct: expressed in transfected cells; host or cells: HEK-293T; experiment: cell-based; conditions: EC50 at indicated opioid receptor, Human DOR
Sequence (P41143 whole entry): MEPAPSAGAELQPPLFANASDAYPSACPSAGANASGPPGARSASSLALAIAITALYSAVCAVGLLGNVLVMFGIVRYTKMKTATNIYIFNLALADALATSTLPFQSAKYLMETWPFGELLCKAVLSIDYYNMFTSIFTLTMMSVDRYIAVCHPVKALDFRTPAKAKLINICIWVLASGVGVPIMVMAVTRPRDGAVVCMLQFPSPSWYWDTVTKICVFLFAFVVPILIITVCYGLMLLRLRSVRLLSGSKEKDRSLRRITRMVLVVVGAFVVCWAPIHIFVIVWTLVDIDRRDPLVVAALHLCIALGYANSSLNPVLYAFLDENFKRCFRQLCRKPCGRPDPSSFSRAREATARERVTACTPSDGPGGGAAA
measuredMetric: EC50

Give recorded EC50 with Human DOR (Homo sapiens, UniProt P41143) for the following molecule: CCCCC1CC2CC3c4oc5ccc(OC)cc5c4CCN(C2)C13 (stereo not shown) [Compound 34i] > 100 µM

Follow-up item: COc1ccc2oc3c(c2c1)CCN1CC2CC(c4ccccc4)C1C3C2 (stereo not shown) [Compound 34n] > 100 µM

Can you check Oc1ccc2oc3c(c2c1)CCN1CC2CC(c4ccccc4)C1C3C2 (stereo not shown) [Compound 35m] next? < 10 µM

// next record Oc1ccc2oc3c(c2c1)CCN1CC2CC(Cc4ccccc4)C1C3C2 (stereo not shown) [Compound 35g] < 10 µM

Another: COCC1CC2CC3c4oc5ccc(O)cc5c4CCN(C2)C13 (stereo not shown) [Compound 35i] < 10 µM

Do the same for CCC1CC2CC3c4oc5ccc(OC)cc5c4CCN(C2)C13 (single isomer, unassigned) [Compound 34d] please > 100 µM

CCC1CC2CC3c4oc5cc(O)ccc5c4CCN(C2)C13 (stereo not shown) [Compound 35f] ? > 10 µM

Now the same for CCC1CC2CC3c4oc5cc(C)c(O)cc5c4CCN(C2)C13 (stereo not shown) [Compound 52c] > 10 µM

And Oc1ccc2oc3c(c2c1)CCN1CC2CC(c4ccccc4)C1C3C2 (stereo not shown) [Compound 35l] ? > 10 µM

Now this one: CCC1CC2CC3c4oc5cccc(O)c5c4CCN(C2)C13 (stereo not shown) [Compound 52b] > 100 µM

Next molecule: CCC1CC2CC3c4oc5cc(F)c(OC)cc5c4CCN(C2)C13 (stereo not shown) [Compound 34l] > 100 µM

Would you mind doing Oc1ccc2oc3c(c2c1)CCN1CC2CCC1C3C2 (stereo not shown) [Compound 35e] as well? > 100 µM

Now the molecule CCC1CC2CC3c4oc5ccc(O)cc5c4C[C@@H](C)N(C2)C13 (stereo partly drawn) [α-endo-52e] > 100 µM

OCC1CC2CC3c4oc5ccc(O)cc5c4CCN(C2)C13 (stereo not shown) [Compound 35j] ? < 10 µM

Queued: CCC1CC2CC3c4oc5c(O)cccc5c4CCN(C2)C13 (stereo not shown) [Compound 52a] > 100 µM

Then CCC1CC2CC3c4oc5ccccc5c4CCN(C2)C13 (stereo not shown) [Compound 34a] ? > 100 µM

Can you check CCC1CC2CC3c4sc5ccccc5c4CCN(C2)C13 (stereo not shown) [Compound 34q] next? > 100 µM

And for CCC1CC2CC3c4oc5ccc(O)cc5c4C[C@@H](CC)N(C2)C13 (stereo partly drawn) [α-endo-52g] ? > 100 µM

# iterate: COCC1CC2CC3c4oc5ccc(OC)cc5c4CCN(C2)C13 (stereo not shown) [Compound 34m] > 10 µM

====

molecular target: Human MOR (Homo sapiens, UniProt P35372); construct: expressed in transfected cells; host or cells: HEK-293T; test: cell-based; settings: EC50 at indicated opioid receptor, Human MOR
Sequence (P35372 whole entry): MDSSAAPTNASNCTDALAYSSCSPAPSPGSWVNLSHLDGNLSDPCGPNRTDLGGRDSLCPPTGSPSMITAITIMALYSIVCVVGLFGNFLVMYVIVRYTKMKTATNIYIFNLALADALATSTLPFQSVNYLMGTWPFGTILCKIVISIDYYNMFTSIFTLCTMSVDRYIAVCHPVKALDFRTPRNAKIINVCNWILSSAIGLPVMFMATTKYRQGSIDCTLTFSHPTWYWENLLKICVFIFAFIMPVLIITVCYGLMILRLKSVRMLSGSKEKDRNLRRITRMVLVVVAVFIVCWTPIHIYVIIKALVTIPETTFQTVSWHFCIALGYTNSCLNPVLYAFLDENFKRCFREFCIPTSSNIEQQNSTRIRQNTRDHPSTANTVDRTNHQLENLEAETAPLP
Would you mind telling me the reported EC50 of each entry?

# input compound: CCC1CC2CC3c4oc5cc(C)c(O)cc5c4CCN(C2)C13 (stereo not shown) [Compound 52c] ; wanted: its EC50 > 10 µM

Param item: Oc1ccc2oc3c(c2c1)CCN1CC2CC(c4ccccc4)C1C3C2 (stereo not shown) [Compound 35l] > 10 µM

Queued: CCC1CC2CC3c4oc5cccc(O)c5c4CCN(C2)C13 (stereo not shown) [Compound 52b] > 10 µM

Next record, please: CCC1CC2CC3c4oc5cc(F)c(O)cc5c4CCN(C2)C13 (stereo not shown) [Compound 35k] < 10 µM

And what about the compound CCC1CC2CC3c4oc5ccc(OC)cc5c4CCN(C2)C13 (single isomer, unassigned) [Compound 34d] ? > 100 µM

Do the same for COc1ccc2oc3c(c2c1)CCN1CC2CCC1C3C2 (stereo not shown) [Compound 34h] please > 100 µM

// same read-out, input: CCC1CC2CC3c4oc5c(O)cccc5c4CCN(C2)C13 (stereo not shown) [Compound 52a] > 100 µM

Try the compound CCC1CC2CC3c4oc5ccccc5c4CCN(C2)C13 (stereo not shown) [Compound 34a] > 100 µM

Lookup CCCC1CC2CC3c4oc5ccc(O)cc5c4CCN(C2)C13 (stereo not shown) [Compound 35c] < 10 µM

Also CCC1CC2CC3c4sc5ccccc5c4CCN(C2)C13 (stereo not shown) [Compound 34q] , if possible. > 100 µM

Another compound to look at: COc1ccc2oc3c(c2c1)CCN1CC2CC(c4ccccc4)C1C3C2 (stereo not shown) [Compound 34n] > 100 µM

Entry to check: CCC1CC2CC3c4oc5ccc(O)cc5c4C[C@@H](CC)N(C2)C13 (stereo partly drawn) [α-endo-52g] > 100 µM

Ok, now CCC1CC2CC3c4sc5ccc(OC)cc5c4CCN(C2)C13 (stereo not shown) [Compound 34r] > 10 µM

Try this compound next: Oc1ccc2oc3c(c2c1)CCN1CC2CC(Cc4ccccc4)C1C3C2 (stereo not shown) [Compound 35g] < 10 µM

Param item: CCC1CC2CC3c4oc5cc(OC)ccc5c4CCN(C2)C13 (stereo not shown) [Compound 34k] < 10 µM

OCC1CC2CC3c4oc5ccc(O)cc5c4CCN(C2)C13 (stereo not shown) [Compound 35j] ? < 10 µM

Try the compound Oc1ccc2oc3c(c2c1)CCN1CC2CC(c4ccccc4)C1C3C2 (stereo not shown) [Compound 35m] < 10 µM

Next record, please: COCC1CC2CC3c4oc5ccc(O)cc5c4CCN(C2)C13 (stereo not shown) [Compound 35i] < 10 µM

What do we get for CCC1CC2CC3c4oc5cc(O)ccc5c4CCN(C2)C13 (stereo not shown) [Compound 35f] ? < 10 µM
